biological target: Botulinum neurotoxin type A (Clostridium botulinum) (UniProt P0DPI0); assay: BoNT/A light chain protease inhibitors, biochemical, multiplex microsphere flow cytometry, validation set (AID 588460); settings: at 10 µM, stronger effect = higher value
Sequence (P0DPI0 whole entry, looked up): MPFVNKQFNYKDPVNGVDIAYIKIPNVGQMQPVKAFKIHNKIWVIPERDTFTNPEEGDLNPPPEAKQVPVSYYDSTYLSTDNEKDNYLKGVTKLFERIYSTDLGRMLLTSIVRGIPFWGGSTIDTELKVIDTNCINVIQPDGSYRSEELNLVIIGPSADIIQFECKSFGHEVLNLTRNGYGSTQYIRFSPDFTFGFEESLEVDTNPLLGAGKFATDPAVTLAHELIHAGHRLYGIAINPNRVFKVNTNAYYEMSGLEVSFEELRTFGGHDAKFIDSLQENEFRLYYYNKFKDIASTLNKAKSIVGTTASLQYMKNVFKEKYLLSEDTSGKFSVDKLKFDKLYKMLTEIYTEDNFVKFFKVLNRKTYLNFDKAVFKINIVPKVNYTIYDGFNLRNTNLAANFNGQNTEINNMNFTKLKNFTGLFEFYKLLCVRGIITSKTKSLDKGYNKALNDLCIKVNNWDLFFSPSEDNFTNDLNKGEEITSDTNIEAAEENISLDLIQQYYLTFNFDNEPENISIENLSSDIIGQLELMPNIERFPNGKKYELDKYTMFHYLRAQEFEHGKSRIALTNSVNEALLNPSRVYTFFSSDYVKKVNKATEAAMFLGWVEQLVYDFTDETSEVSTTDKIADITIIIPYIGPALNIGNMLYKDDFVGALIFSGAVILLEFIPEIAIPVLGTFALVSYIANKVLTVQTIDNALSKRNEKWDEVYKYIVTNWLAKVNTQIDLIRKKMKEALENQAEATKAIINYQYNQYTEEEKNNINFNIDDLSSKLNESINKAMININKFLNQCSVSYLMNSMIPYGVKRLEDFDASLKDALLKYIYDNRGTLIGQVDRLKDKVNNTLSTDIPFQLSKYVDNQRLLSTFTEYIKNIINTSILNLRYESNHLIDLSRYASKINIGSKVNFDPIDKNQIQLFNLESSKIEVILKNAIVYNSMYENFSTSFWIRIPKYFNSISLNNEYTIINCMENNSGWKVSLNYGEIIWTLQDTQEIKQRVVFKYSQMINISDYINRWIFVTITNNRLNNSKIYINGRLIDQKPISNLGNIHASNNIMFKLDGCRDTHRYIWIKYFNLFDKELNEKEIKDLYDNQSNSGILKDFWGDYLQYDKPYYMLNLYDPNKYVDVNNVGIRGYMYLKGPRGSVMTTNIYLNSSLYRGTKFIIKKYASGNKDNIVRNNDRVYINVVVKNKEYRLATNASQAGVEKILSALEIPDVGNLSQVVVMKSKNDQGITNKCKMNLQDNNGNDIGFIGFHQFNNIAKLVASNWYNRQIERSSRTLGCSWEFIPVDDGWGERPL
Please provide measured inhibition for the entries that follow.
Answers are plain numbers, in %.

NNC(=O)c1cc(O)c(O)c(O)c1 :: -1
COc1ccc(OCC(=O)N2c3ccc(C)cc3C3CN(C)CCC32)cc1 (stereo not drawn) :: -0.7
Cc1occc(=O)c1O :: 0.8
CCn1c(O)c(/C=C2\C=Nc3ccccc32)sc1=O :: 0.3
COc1ccc(C2NC(=O)c3ccccc3N2)cc1OC (stereo not drawn) :: -0.1
Cc1csc(CCc2nc(C)cs2)n1 :: 0.2
O=C1OCCN1/N=C/c1ccc([N+](=O)[O-])o1 :: -0.4
COC(=O)CCC(=O)CN :: 0.6

Below is a list of compounds. For each, state its recorded inhibition.
1. COc1ccc(-c2coc3cc(O)cc(O)c3c2=O)cc1
2. CC1(C)CC(=O)C(C2=NC(C)(C)Cc3ccccc32)=C(O)C1
3. CCc1cc(=O)oc2cc(OCC=C(C)C)ccc12

-- reply
-0.7
0.9
0.5

---

tested on: Botulinum neurotoxin type F light chain protease (Clostridium botulinum); experiment: Botulinum neurotoxin type F light chain protease inhibition, multiplex microsphere flow cytometry, validation set (AID 588459); conditions: multiplex microsphere protease substrate cleavage assay, at 10 µM, stronger effect = higher value
METRIC: inhibition (%)
Answers are plain numbers, in %.

Take a look at these entries with their results.
CCOC(=O)c1ccc(N2C(=O)C(CC(N)=O)N(CCc3ccc(OC)c(OC)c3)C2=S)cc1 (stereo not given) :: 2
O=C(CCCC(=O)OCC1CCCO1)OCC1CCCO1 (stereo not given) :: 1.9
Cc1ccc(Cl)c(OCCCN(C)Cc2ccccc2)c1 :: 2.8
c1ccc2c(c1)[nH]c1cnccc12 :: 5.3
CCCNCC(O)COc1ccccc1C(=O)CCc1ccccc1 (stereo not given) :: 1.5
CCC1(c2ccccc2)C(=O)NCNC1=O :: 0
O=C1C(O)CC2c3ccccc3CC3(CCCC3)N12 (stereo not given) :: 2
O=C(O)/C=C/c1cnc[nH]1 :: 1.9

Below is a list of compounds. For each, state its recorded inhibition.
1. COc1ccc(CCNC(=O)CC(c2ccccc2)c2cccc(C)c2O)cc1OC (stereo not given)
2. O=C(O)CCCCCNC(=O)Nc1ccc2c(c1)OCCO2
3. Cc1ccc2c(c1)C1OCCC1C1N2C(=O)C2C(C(=O)O)C3C=CC21O3 (stereo not given)
4. N#C/C(=C/c1ccccc1)C(=O)NCc1ccccc1
5. COc1cccc(OC)c1C(=O)Nc1nc2ccc([N+](=O)[O-])cc2s1
6. COc1cccc(OCC(O)CO)c1 (stereo not given)

-- reply
1: -0.9; 2: 1.3; 3: -1.8; 4: 5.2; 5: 7.7; 6: -1.4

---

Please provide measured inhibition for the entries that follow.
target: Lethal factor (Bacillus anthracis); assay: Lethal factor protease inhibitors, Bacillus anthracis, multiplex microsphere cleavage assay, validation set (AID 588461); conditions: flow cytometry, at 10 µM, stronger effect = higher value
Numbers only, in %.

Cn1c2ccccc2c2cc(/C=C(\NC(=O)c3ccccc3)C(=O)O)ccc21 :: 4.6
C[C@@H]1C[C@H](Nc2ccccc2)c2ccccc2N1C(=O)c1cccnc1 :: -2.9
CCC(C)NCCOCCOc1ccc(Cl)cc1Br (centres undefined) :: -2.1

Pending molecule:
-- ask Form field: inhibition recorded for CC[C@]1(O)C[C@@H]2CN(CCc3c([nH]c4ccccc34)[C@@](C(=O)OC)(c3cc4c(cc3OC)N(C)[C@H]3[C@@](O)(C(=O)OC)[C@H](OC(C)=O)[C@]5(CC)C=CCN6CC[C@]43[C@@H]65)C2)C1 with Lethal factor (Bacillus anthracis) (enter value)
-- reply -0.3

---

assay: inhibitors of CD8+ T cell-vesicle binding, pilot screen, LFA-1/ICAM-1 modulator project, MLPCN validation set, flow cytometry (AID 2523); conditions: 2C mouse CD8+ T cells, at 7 µM, stronger effect = lower value; measured here: CD8+/vesicle+ event percentage
Please provide measured double positive events for the entries that follow.
Give bare numbers, in %.

CC[C@@H](CO)NC(=O)[C@@H]1C=C2c3cccc4c3c(cn4C)C[C@H]2N(C)C1 :: 59.1
O=C(CCCN1CCC2(CC1)C(=O)NCN2c1ccccc1)c1ccc(F)cc1 :: 62.6
COP(=S)(OC)SCN1C(=O)c2ccccc2C1=O :: 63.5
COc1ccc(NC2=NCC(C)S2)cc1 (configuration not stated) :: 69.5
Cc1cc(Cl)ccc1OCC(=O)O :: 60.3
CCn1ccnc1CN1CCCC(C(=O)c2cc(F)ccc2OC)C1 (configuration not stated) :: 61.5
CC[C@]12C=CCN3CCC4(c5cc(Br)c(OC)cc5N(C)C4[C@@](O)(C(=O)OC)[C@@H]1OC(C)=O)C32 (some centres not stated) :: 48.2
c1ccc2c3c([nH]c2c1)CNCC3 :: 55.3
CCN(CC)CCOC(=O)C(O)(c1ccccc1)c1ccccc1 :: 62
O=C1NC(=O)C2(Cc3ccccc3N3CCCC32)C(=O)N1c1ccc(Cl)cc1 (configuration not stated) :: 64.8

Below is a list of compounds. For each, state its recorded double positive events.
1. CCOc1ccc(C2C(C#N)=C(N)Oc3c2c(=O)oc2ccccc32)cc1 (configuration not stated)
2. CC12CCC3C(CC=C4CC5(CCC43C)OCCO5)C1CCC2=O (configuration not stated)

-- reply
[59.3, 65.4]

---

biological target: Botulinum neurotoxin type A (Clostridium botulinum); assay: BoNT/A light chain protease inhibitors, biochemical, multiplex microsphere flow cytometry, validation set (AID 588460); conditions: at 10 µM, stronger effect = higher value
Please provide measured inhibition for the entries that follow.
Answers are plain numbers, in %.

Below is a list of molecules. For each, state its recorded inhibition.
1. CC(C)Oc1cccc(C(=O)N2CCCC2)c1
2. Cc1ccc(OCCSc2ncccn2)c(C)c1
3. C=CC1=C(C(=O)O)N2C(=O)C(NC(=O)Cc3ccccc3)C2SC1 (stereo not drawn)
4. C=CCc1ccccc1OCC(O)CNC(C)C (stereo not drawn)

-- reply
[-0.3, 0.6, 0.1, 0.4]

---

test: inhibitors of CD8+ T cell-vesicle binding, pilot screen, LFA-1/ICAM-1 modulator project, MLPCN validation set, flow cytometry (AID 2523); conditions: 2C mouse CD8+ T cells, at 7 µM, stronger effect = lower value; measured here: CD8+/vesicle+ event percentage
Please provide measured double positive events for the entries that follow.
Answer by giving the amount and then stating its unit.

Take a look at these entries with their results.
COc1ccc(CN2CC3CC(C2)c2cccc(=O)n2C3)cc1OC (centres undefined) :: 60.2%
C[C@@H]1O[C@@H](O[C@H]2C[C@@H](O)[C@]3(CO)[C@H]4[C@H](O)C[C@]5(C)[C@@H](C6COC(=O)C6)CC[C@]5(O)[C@@H]4CC[C@]3(O)C2)[C@H](O)[C@H](O)[C@H]1O (some centres undefined) :: 62.7%
O=C1CC[C@@]2(O)[C@H]3Cc4ccc(O)c5c4[C@@]2(CCN3CC2CC2)[C@H]1O5 :: 63.4%
CC(C)C(=O)Nc1ccc(S(=O)(=O)N2CC3CC(C2)c2cccc(=O)n2C3)cc1 (centres undefined) :: 58.5%
C[C@]12CCC(=O)C(O)=C1CC[C@@H]1[C@@H]2CC[C@]2(C)C(=O)CC[C@@H]12 :: 68.3%
Cc1cc2c(C(C)C)c(O)c(O)c(C=O)c2c(O)c1-c1c(C)cc2c(C(C)C)c(O)c(O)c(C=O)c2c1O :: 63.4%

Below is a list of compounds. For each, state its recorded double positive events.
1. COc1cc(/C=C2\C(=O)NC(=O)N(c3ccccc3)C2=O)c([N+](=O)[O-])cc1OC
2. COc1ccc(OC)c([C@@H](O)[C@H](C)NC(C)(C)C)c1
3. NNC(=O)c1ccc(Cl)cc1

-- reply
61.7%
62%
56.2%

---

target: Beta-adrenergic receptor kinase 1 (Homo sapiens) (UniProt P25098); assay: GRK2 binders displacing RNA aptamer, biochemical, validation, human GRK2, bead flow cytometry (AID 488806); settings: bead-bound GRK2, FAM-aptamer displacement, at 10 µM, stronger effect = higher value
Sequence (P25098 whole entry, looked up): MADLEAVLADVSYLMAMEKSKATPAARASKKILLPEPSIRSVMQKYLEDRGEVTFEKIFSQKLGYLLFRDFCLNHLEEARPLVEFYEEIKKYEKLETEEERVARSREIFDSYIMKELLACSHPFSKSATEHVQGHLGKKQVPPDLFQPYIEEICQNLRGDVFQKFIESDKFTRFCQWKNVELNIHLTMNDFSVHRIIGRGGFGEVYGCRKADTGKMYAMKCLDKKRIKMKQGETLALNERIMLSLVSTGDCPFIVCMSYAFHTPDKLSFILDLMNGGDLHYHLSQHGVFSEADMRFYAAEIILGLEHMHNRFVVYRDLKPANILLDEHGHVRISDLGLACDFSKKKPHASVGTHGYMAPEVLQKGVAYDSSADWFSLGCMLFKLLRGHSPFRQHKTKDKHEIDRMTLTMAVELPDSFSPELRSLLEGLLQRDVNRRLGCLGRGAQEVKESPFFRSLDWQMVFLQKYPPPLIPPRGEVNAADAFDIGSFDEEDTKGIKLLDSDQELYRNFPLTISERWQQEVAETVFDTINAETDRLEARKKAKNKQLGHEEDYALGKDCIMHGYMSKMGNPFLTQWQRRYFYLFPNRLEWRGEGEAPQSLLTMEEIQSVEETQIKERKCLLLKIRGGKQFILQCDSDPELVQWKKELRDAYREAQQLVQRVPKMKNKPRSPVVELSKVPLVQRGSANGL
METRIC: aptamer binding inhibition (%)
Give bare numbers, in %.

CCOC(=O)C(C)Oc1cc(C)cc2oc(=O)c3c(c12)CCCC3 (stereo not given) :: 5
CC12CN3CC(C)(CN(C1)C31CCOCC1)C2=O :: 2

Below is a list of compounds. For each, state its recorded aptamer binding inhibition.
1. CC(Cc1ccccc1)NCC(=O)Nc1cc(N(C)C)nc2ccccc12 (stereo not given)
2. CC(C)NC(C)C(=O)c1ccc2ccccc2c1 (stereo not given)
3. c1ccc2c3c([nH]c2c1)CNCC3
4. CC(C)[C@@]1(NC(=O)[C@@H]2C[C@@H]3c4cccc5[nH]cc(c45)C[C@H]3N(C)C2)O[C@@]2(O)[C@@H]3CCCN3C(=O)[C@H](Cc3ccccc3)N2C1=O
5. O=C1CN=C(c2ccccc2F)c2cc(Cl)ccc2N1

-- reply
[5, 1, -5, -3, -3]

Below is a list of compounds. For each, state its recorded aptamer binding inhibition.
1. C[C@]12CC[C@@H](O)C[C@@H]1CC[C@@H]1[C@@H]2CC[C@]2(C)C(=O)CC[C@@H]12
2. CN1C(=O)N(C)C(=O)C2(Cc3ccccc3N3CCOCC32)C1=O (stereo not given)
3. CC(C)C[C@H]1C(=O)N2CCCC2[C@]2(O)O[C@](NC(=O)[C@@H]3C=C4c5cccc6[nH]cc(c56)CC4N(C)C3)(C(C)C)C(=O)N12 (stereo not given in full)

-- reply
1. 3
2. 0
3. 5
